Could you please report measured Kd for the items listed next?
Target under test: human FcRn complex (FCGRT and beta-2 microglobulin), recombinant, purified (human) (UniProt P55899)
Sequence (P55899 24-297 limits assumed, chain 1 of 2): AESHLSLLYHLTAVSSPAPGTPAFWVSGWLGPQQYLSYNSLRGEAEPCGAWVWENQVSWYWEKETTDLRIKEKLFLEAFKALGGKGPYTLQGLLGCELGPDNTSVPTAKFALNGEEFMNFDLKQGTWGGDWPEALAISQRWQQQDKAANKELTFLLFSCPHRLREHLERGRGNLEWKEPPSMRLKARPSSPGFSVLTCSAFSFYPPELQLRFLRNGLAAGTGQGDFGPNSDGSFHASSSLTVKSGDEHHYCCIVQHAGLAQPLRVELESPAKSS
Sequence (P61769 21-119 limits assumed, chain 2 of 2, further chain): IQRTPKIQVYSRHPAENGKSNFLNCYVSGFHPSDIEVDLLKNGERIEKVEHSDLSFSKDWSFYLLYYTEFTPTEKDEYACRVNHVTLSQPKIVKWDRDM
Procedure text: SPR, anti-human Fab capture, pH 6, steady state
Field: numeric (nM). Do not append units.

Entry anti-Abeta hIgG4 antibody, Fc modification Q95 (M252Y/T307Q/Q311A/N434Y) (antibody, part only; not given: anti-Abeta variable domains, not shown: another chain or arm of the molecule) Fc: PAPEFLGGPSVFLFPPKPKDTLYISRTPEVTCVVVDVSQEDPEVQFNWYVDGVEVHNAKTKPREEQFNSTYRVVSVLQVLHADWLNGKEYKCKVSNKGLPSSIEKTISKAKGQPREPQVYTLPPSQEEMTKNQVSLTCLVKGFYPSDIAVEWESNGQPENNYKTTPPVLDSDGSFFLYSRLTVDKSRWQEGNVFSCSVMHEALHYHYTQKSLSLSLGK , Kd reported as 6.5

For record anti-Abeta hIgG4 antibody, Fc modification Q7 (M252Y/Q311A/N434Y/Y436I) (antibody, part only; not given: anti-Abeta variable domains, not shown: another chain or arm of the molecule) Fc: PAPEFLGGPSVFLFPPKPKDTLYISRTPEVTCVVVDVSQEDPEVQFNWYVDGVEVHNAKTKPREEQFNSTYRVVSVLTVLHADWLNGKEYKCKVSNKGLPSSIEKTISKAKGQPREPQVYTLPPSQEEMTKNQVSLTCLVKGFYPSDIAVEWESNGQPENNYKTTPPVLDSDGSFFLYSRLTVDKSRWQEGNVFSCSVMHEALHYHITQKSLSLSLGK the listed Kd is 7.4

Record anti-BACE1 hIgG4 antibody, Fc modification Q95 (M252Y/T307Q/Q311A/N434Y) (antibody, part only; not given: Anti-BACE1 variable domains, not shown: another chain or arm of the molecule) Fc: PAPEFLGGPSVFLFPPKPKDTLYISRTPEVTCVVVDVSQEDPEVQFNWYVDGVEVHNAKTKPREEQFNSTYRVVSVLQVLHADWLNGKEYKCKVSNKGLPSSIEKTISKAKGQPREPQVYTLPPSQEEMTKNQVSLTCLVKGFYPSDIAVEWESNGQPENNYKTTPPVLDSDGSFFLYSRLTVDKSRWQEGNVFSCSVMHEALHYHYTQKSLSLSLGK . Reported Kd: 5.9
